Biological target: PDE4D3 (Homo sapiens, UniProt Q08499)
Sequence (Q08499 1-673 isoform Q08499-2): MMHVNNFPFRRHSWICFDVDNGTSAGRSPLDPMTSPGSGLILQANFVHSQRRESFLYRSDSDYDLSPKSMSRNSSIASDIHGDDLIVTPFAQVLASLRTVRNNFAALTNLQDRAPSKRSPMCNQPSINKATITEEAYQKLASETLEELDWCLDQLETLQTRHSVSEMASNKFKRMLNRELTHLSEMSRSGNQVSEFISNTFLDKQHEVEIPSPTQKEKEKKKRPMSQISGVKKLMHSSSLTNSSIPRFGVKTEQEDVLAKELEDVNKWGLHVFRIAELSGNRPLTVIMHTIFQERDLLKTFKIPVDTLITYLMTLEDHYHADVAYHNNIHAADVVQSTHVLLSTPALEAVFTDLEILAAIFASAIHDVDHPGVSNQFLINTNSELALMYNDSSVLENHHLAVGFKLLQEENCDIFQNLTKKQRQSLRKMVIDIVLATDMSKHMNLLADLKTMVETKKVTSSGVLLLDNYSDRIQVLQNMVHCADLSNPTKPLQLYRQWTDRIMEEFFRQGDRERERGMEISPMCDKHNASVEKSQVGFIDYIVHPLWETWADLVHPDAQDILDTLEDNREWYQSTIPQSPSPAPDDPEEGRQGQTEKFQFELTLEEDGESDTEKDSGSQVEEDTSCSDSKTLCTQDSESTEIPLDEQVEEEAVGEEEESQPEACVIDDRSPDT
Assay: PDE4D3 enzyme inhibition (IMAP)
Assay type: biochemical
Conditions: 10 μM, in duplicate
Give PDE4D3 % inib at 10 μM for every item shown.
Give bare numbers, in %.

Examples with their reported PDE4D3 % inib at 10 μM follow.
COc1ccc(C2=NOC(CC(=O)N3CCCC3)C2)cc1OC1CCCC1 (stereo not drawn) : 57
COc1ccc(-c2ccn(CC(O)CN3CCC(O)CC3)n2)cc1OC1CCCC1 (stereo not drawn) : 2
COc1ccc(-c2ccn(CC(=O)N3CCOCC3)c2)cc1OC1CCCC1 : 7

Below are some molecules; for each one, tell me its PDE4D3 % inib at 10 μM.
1. COc1ccc(-c2ccn(CC(O)CN3CCC(O)CC3)c2)cc1OC1CCCC1 (stereo not drawn)
2. COc1ccc(-c2cc(C(=O)N3CC(C)OC(C)C3)on2)cc1OC1CCCC1 (stereo not drawn)

5
35

Below are some molecules; for each one, tell me its PDE4D3 % inib at 10 μM.
1. COc1ccc(-c2ccn(CC(O)CN3CCOCC3)n2)cc1OC1CCCC1 (stereo not drawn)
2. COc1ccc(C2=NOC(C(=O)N3CCCC3)C2)cc1OC1CCCC1 (stereo not drawn)
3. COc1ccc(-c2ccn(CC(=O)N3CCOCC3)n2)cc1OC1CCCC1
4. COc1ccc(-c2c[nH]cc2C(=O)N2CC(C)OC(C)C2)cc1OC1CCCC1 (stereo not drawn)

1: 68; 2: 15; 3: 27; 4: 6

Origin of the recorded values: patent US10017480B2
